These measurements were taken from ChEMBL document CHEMBL4350991.

Test system: PC-12
Experiment: cells
Type: functional
Conditions: Rattus norvegicus
test.readout: viability at 10 µM (%)
API: value field is a number in %; no unit string.

Reference set (10 entries):
>>> obs_value("O=c1c2cc(NS(=O)(=O)c3ccc(C(F)(F)F)cc3)ccc2nc2n1CCc1c-2[nH]c2ccccc12")
56.1
>>> obs_value("O=c1c2cc(NS(=O)(=O)c3ccc(OC(F)(F)F)cc3)ccc2nc2n1CCc1c-2[nH]c2ccccc12")
60.1
>>> obs_value("COc1cc2c(cc1OC)C(=O)C(CC1CCN(Cc3ccccc3)CC1)C2 (configuration not stated)")
65.5
>>> obs_value("COC(=O)c1sccc1S(=O)(=O)Nc1ccc2nc3n(c(=O)c2c1)CCc1c-3[nH]c2ccccc12")
39.9
>>> obs_value("O=c1c2cc(NS(=O)(=O)c3cccc([N+](=O)[O-])c3)ccc2nc2n1CCc1c-2[nH]c2ccccc12")
40.9
>>> obs_value("COc1ccc(S(=O)(=O)Nc2ccc3nc4n(c(=O)c3c2)CCc2c-4[nH]c3ccccc23)cc1")
42.3
>>> obs_value("CC(C)(C)c1ccc(S(=O)(=O)Nc2ccc3nc4n(c(=O)c3c2)CCc2c-4[nH]c3ccccc23)cc1")
41.2
>>> obs_value("O=c1c2cc(NS(=O)(=O)c3cccs3)ccc2nc2n1CCc1c-2[nH]c2ccccc12")
40.8
>>> obs_value("O=c1c2cc(NS(=O)(=O)c3ccccc3OC(F)(F)F)ccc2nc2n1CCc1c-2[nH]c2ccccc12")
59.7
>>> obs_value("COc1ccc(S(=O)(=O)Nc2ccc3nc4n(c(=O)c3c2)CCc2c-4[nH]c3ccccc23)c(OC)c1")
52

Now turn to the next compound.
The recorded viability at 10 µM for O=c1c2cc(NS(=O)(=O)c3ccc(F)c(Cl)c3)ccc2nc2n1CCc1c-2[nH]c2ccccc12 is 58.1
